Where these numbers come from: PubChem BioAssay (Tox21)

- study system: Estrogen receptor beta (Homo sapiens) (UniProt Q92731)
- Sequence (Q92731 whole entry, looked up): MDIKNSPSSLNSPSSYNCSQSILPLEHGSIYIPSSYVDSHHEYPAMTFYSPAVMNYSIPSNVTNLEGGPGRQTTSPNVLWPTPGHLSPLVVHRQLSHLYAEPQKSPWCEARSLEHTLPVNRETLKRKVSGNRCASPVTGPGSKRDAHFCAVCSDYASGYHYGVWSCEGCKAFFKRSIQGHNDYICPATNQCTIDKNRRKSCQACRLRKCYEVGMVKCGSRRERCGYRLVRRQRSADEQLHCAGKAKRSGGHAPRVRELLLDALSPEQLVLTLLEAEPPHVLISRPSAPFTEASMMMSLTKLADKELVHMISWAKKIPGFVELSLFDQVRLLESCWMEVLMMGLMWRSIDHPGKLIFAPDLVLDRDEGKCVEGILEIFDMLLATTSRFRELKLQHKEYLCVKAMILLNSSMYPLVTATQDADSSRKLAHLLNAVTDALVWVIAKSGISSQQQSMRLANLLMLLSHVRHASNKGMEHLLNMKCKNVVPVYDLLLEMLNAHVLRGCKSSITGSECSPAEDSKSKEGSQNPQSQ
- assay comment: qHTS assay to identify small molecule agonists of the estrogen receptor beta (ER-beta) signaling pathway (AID 1259377)
- experimental context: ER-beta-UAS-bla HEK293T, beta-lactamase FRET ratio, 16 h; series mostly up to 92.4 µM
Records with an inconclusive call do not appear. Calls of active or inactive are those of the source. The call rests on the fitted dose curve; in most records, active means well fitted activation curve with a large enough effect in the signal ratio in the repeat runs (not every such curve was filed as active); inconclusive means weak or mixed curves, or effect the other way; inactive means flat fitted curve, though single readings scatter; the % refers to the signal ratio.
observation type: activation

In [3]: df
Out[3]:
                                   molecule  test_result
0  O=C(c1ccc2c(c1)C(=O)OC2=O)c1ccc2c(c1)C(=O)OC2=O     inactive
1                    O=C1c2ccccc2-c2ccccc21     inactive
2                               CCc1nccnc1C     inactive
3                CCOC(=O)C(=O)c1csc(NC=O)n1     inactive
4              CC(C)(CO)[C@@H](O)C(=O)NCCCO     inactive
5  CC(CC(=O)O)CC(C)(C)C (configuration not stated)     inactive

Shift focus to the following entry.
Report activation, nothing else, for this molecule: CC1CCC(C(C)(C)S)C(=O)C1 (configuration not stated)
inactive
